Please go through the items and note down their kinase still bound, per cent of control.
biological target: UniProt Q13882; experiment: KINOMEscan competition binding; conditions: compound 10.0 µM
Sequence (Q13882 whole entry, looked up): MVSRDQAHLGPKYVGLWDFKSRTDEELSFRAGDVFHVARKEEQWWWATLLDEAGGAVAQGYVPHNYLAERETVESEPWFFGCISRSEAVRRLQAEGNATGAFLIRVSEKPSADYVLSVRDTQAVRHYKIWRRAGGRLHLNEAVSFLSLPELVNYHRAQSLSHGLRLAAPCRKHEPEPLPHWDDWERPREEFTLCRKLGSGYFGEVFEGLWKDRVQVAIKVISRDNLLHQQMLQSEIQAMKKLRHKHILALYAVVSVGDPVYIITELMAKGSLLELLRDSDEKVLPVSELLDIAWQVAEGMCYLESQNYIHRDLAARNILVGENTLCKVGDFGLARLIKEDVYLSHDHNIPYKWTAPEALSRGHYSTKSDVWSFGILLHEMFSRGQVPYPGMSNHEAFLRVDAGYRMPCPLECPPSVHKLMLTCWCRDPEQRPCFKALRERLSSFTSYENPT
Numbers only, in %.

COc1cc(C(=O)NC2CCN(C)CC2)ccc1Nc1ncc2c(n1)N(C1CCCC1)CCC(=O)N2C(C)C    100
COc1cc(N2CCN(C)CC2)ccc1Nc1nc(N)c(C(=O)c2c(Cl)cccc2Cl)s1    100
CC[C@@H]1C(=O)N(C)c2cnc(Nc3ccc(C(=O)NC4CCN(C)CC4)cc3OC)nc2N1C1CCCC1    100
Cc1ccc2nc(NCCN)c3ncc(C)n3c2c1    99
CCC(=O)N1CCN(c2ccc(-n3c(=O)ccc4cnc5ccc(-c6cnc7ccccc7c6)cc5c43)cc2C(F)(F)F)CC1    51

Then this compound:
kinase still bound, per cent of control for Cn1c(=O)n(-c2ccc(C(C)(C)C#N)cc2)c2c3cc(-c4cnc5ccccc5c4)ccc3ncc21 ?
100

----------
biological target: RPS6KA2 KD2 (human) (UniProt Q15349); test: KINOMEscan competition binding; details: compound 10.0 µM
Sequence (Q15349 whole entry, looked up): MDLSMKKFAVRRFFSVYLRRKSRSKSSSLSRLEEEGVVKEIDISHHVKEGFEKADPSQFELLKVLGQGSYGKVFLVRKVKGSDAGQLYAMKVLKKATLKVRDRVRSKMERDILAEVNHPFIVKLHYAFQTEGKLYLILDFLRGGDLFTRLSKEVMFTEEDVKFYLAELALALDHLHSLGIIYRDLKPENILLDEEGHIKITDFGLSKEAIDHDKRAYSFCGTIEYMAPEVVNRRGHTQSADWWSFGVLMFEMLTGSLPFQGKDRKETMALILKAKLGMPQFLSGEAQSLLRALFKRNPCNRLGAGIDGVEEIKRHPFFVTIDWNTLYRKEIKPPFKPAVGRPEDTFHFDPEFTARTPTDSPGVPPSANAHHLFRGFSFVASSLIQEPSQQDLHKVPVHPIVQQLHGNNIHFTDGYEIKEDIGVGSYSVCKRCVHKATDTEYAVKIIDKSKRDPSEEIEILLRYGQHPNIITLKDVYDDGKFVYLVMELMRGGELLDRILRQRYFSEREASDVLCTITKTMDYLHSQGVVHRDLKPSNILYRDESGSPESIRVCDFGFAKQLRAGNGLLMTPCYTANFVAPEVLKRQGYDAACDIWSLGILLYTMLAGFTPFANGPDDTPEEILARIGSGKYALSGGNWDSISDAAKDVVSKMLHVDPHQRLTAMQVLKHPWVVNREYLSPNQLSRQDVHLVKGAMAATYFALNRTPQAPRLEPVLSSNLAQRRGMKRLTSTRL
Hi! Just check whether kinase still bound, per cent of control is below 90%. Below gives y, equal or above gives n.

Examples with answers:
C=CC(=O)Nc1cccc(Nc2nc(N[C@H]3CC[C@H](N(C)C)CC3)nc3c2ncn3C(C)C)c1    y
O=C(NC1CC1)c1cccc(-c2ccc3c(NC(=O)C4CC4)n[nH]c3c2)c1    y
CCCS(=O)(=O)Nc1ccc(F)c(C(=O)c2c[nH]c3ncc(-c4ccc(Cl)cc4)cc23)c1F    y

Hello, I'm reviewing records and need to know if kinase still bound, per cent of control of OCCCNc1cc(-c2ccnc(Nc3cccc(Cl)c3)n2)ccn1 is below 90%. Could you check?
n

Hello, I'm reviewing records and need to know if kinase still bound, per cent of control of Nc1ccc(-c2ccc3ncc4ccc(=O)n(-c5cccc(C(F)(F)F)c5)c4c3c2)cn1 is below 90%. Could you check?
y

----------
Please go through the items and note down their kinase still bound, per cent of control.
target: EPHA4 (human); assay: KINOMEscan competition binding; details: compound 10.0 µM
One number for each entry, in %.

CCOc1cc2ncc(C#N)c(Nc3ccc(OCc4ccccn4)c(Cl)c3)c2cc1NC(=O)/C=C/CN(C)C    96

Could you tell me kinase still bound, per cent of control for each of these compounds? They are listed below.
1. COc1cc(N2CCN(C)CC2)ccc1Nc1nc(N)c(C(=O)c2c(Cl)cccc2Cl)s1
2. CCN1CCN(Cc2ccc(Nc3ncc4c(n3)N(C)c3ccccc3C(=O)N4C)cc2C(F)(F)F)CC1
3. CN(C)C/C=C/C(=O)Nc1cccc(Nc2ncc3c(n2)N(C)c2ccccc2C(=O)N3C)c1
4. C=CC(=O)Nc1cccc(Oc2nc(Nc3ccc(N4CCN(C)CC4)cc3OC)ncc2Cl)c1
5. N#Cc1c(NC(=O)c2cccc3ccccc23)sc2c1CCCC2

1: 90; 2: 100; 3: 79; 4: 100; 5: 100

Could you tell me kinase still bound, per cent of control for each of these compounds? They are listed below.
1. O=C1Nc2ccc(I)cc2/C1=C/c1cc(Br)c(O)c(Br)c1
2. COc1cc(C(=O)NC2CCN(C)CC2)ccc1Nc1ncc2c(n1)N(C1CCCC1)C(C)CC(=O)N2C (centres undefined)
3. Cc1cc([C@@H](C)Nc2ccccc2C(=O)O)c2nc(N3CCOCC3)cc(=O)n2c1

100
100
93

----------
biological target: DDR1 (human) (UniProt Q08345); assay: KINOMEscan competition binding; conditions: compound 10.0 µM
Sequence (Q08345 whole entry, looked up): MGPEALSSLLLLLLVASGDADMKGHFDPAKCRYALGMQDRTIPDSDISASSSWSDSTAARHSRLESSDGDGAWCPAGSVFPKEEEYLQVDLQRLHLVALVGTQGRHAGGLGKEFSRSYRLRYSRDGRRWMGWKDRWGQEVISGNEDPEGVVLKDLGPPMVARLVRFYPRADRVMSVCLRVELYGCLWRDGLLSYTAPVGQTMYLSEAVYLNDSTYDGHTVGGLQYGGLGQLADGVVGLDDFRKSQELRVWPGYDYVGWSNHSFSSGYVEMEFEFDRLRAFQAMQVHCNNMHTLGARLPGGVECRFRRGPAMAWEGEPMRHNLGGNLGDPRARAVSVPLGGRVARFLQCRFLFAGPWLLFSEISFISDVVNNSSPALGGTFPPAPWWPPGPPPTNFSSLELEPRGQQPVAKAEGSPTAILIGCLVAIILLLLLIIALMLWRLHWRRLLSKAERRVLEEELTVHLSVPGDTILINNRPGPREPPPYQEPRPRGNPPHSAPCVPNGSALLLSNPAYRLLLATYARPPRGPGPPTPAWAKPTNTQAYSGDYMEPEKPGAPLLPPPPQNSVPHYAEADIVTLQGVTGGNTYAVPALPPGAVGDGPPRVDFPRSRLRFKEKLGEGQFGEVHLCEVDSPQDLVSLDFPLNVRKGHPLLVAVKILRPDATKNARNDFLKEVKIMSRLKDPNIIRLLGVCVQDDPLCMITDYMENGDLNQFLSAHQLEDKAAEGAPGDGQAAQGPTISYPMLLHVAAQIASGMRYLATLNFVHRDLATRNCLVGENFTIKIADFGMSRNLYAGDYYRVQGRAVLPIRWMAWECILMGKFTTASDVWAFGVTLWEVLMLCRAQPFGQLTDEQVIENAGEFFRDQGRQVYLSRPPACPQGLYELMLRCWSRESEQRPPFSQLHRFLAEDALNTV
Please go through the items and note down their kinase still bound, per cent of control.
Answers are plain numbers, in %.

CCC(=O)N1CCN(c2ccc(-n3c(=O)ccc4cnc5ccc(-c6cnc7ccccc7c6)cc5c43)cc2C(F)(F)F)CC1    100
Cc1cc([C@@H](C)Nc2ccccc2C(=O)O)c2nc(N3CCOCC3)cc(=O)n2c1    100
C[C@@H](Oc1cc(-n2cnc3ccc(CN4CCN(C)CC4)cc32)sc1C(N)=O)c1ccccc1C(F)(F)F    100
CC[C@@H]1C(=O)N(C)c2cnc(Nc3ccc(C(=O)NC4CCN(C)CC4)cc3OC)nc2N1C1CCCC1    100
CN(C)C/C=C/C(=O)Nc1cccc(Nc2ncc3c(n2)N(C)c2ccccc2C(=O)N3C)c1    5.4

Could you tell me kinase still bound, per cent of control for each of these compounds? They are listed below.
1. O=C(NC1CC1)c1cccc(-c2ccc3c(NC(=O)C4CC4)n[nH]c3c2)c1
2. C=CC(=O)Nc1cccc(Oc2nc(Nc3ccc(N4CCN(C)CC4)cc3OC)ncc2Cl)c1
3. Cn1c(=O)n(-c2ccc(C(C)(C)C#N)cc2)c2c3cc(-c4cnc5ccccc5c4)ccc3ncc21
4. COc1cc(C(=O)NC2CCN(C)CC2)ccc1Nc1ncc2c(n1)N(C1CCCC1)C(C)CC(=O)N2C (centres undefined)

71
100
100
100

----------
target: PHKG1 (human) (UniProt Q16816); experiment: KINOMEscan competition binding; details: compound 10.0 µM
Sequence (Q16816 whole entry, looked up): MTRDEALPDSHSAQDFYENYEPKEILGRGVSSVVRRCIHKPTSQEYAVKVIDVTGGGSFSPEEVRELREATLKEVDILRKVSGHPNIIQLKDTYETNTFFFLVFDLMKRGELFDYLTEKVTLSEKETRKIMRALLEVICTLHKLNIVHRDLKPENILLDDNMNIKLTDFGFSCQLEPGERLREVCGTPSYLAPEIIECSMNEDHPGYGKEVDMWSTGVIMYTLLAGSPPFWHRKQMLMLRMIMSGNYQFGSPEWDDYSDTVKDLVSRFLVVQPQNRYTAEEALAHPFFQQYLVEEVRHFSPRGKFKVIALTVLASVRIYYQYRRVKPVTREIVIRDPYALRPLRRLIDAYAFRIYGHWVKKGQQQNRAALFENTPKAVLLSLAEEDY
Please go through the items and note down their kinase still bound, per cent of control.

Worked examples follow.
C=CC(=O)Nc1cccc(Nc2nc(N[C@H]3CC[C@H](N(C)C)CC3)nc3c2ncn3C(C)C)c1    57%
CCOc1cc2ncc(C#N)c(Nc3ccc(OCc4ccccn4)c(Cl)c3)c2cc1NC(=O)/C=C/CN(C)C    92%
CC[C@@H]1C(=O)N(C)c2cnc(Nc3ccc(C(=O)NC4CCN(C)CC4)cc3OC)nc2N1C1CCCC1    100%
Cc1ccc(C(=O)Nc2cccc(C(F)(F)F)c2)cc1Nc1cncc(C(N)=O)c1    100%
Cc1ccc2nc(NCCN)c3ncc(C)n3c2c1    95%

Could you tell me kinase still bound, per cent of control for each of these compounds? They are listed below.
1. C[C@@H](Oc1cc(-n2cnc3ccc(CN4CCN(C)CC4)cc32)sc1C(N)=O)c1ccccc1C(F)(F)F
2. C=CC(=O)Nc1cccc(Oc2nc(Nc3ccc(N4CCN(C)CC4)cc3OC)ncc2Cl)c1
3. O=C(O)c1ccc(Nc2ncc3c(n2)-c2ccc(Cl)cc2C(c2c(F)cccc2F)=NC3)cc1
4. CCCS(=O)(=O)Nc1ccc(F)c(C(=O)c2c[nH]c3ncc(-c4ccc(Cl)cc4)cc23)c1F
5. O=C(NC1CC1)c1cccc(-c2ccc3c(NC(=O)C4CC4)n[nH]c3c2)c1

94%
7.7%
100%
100%
76%

----------
target: RPS6KA1 KD1 (human) (UniProt Q15418); experiment: KINOMEscan competition binding; conditions: compound 10.0 µM
Sequence (Q15418 whole entry, looked up): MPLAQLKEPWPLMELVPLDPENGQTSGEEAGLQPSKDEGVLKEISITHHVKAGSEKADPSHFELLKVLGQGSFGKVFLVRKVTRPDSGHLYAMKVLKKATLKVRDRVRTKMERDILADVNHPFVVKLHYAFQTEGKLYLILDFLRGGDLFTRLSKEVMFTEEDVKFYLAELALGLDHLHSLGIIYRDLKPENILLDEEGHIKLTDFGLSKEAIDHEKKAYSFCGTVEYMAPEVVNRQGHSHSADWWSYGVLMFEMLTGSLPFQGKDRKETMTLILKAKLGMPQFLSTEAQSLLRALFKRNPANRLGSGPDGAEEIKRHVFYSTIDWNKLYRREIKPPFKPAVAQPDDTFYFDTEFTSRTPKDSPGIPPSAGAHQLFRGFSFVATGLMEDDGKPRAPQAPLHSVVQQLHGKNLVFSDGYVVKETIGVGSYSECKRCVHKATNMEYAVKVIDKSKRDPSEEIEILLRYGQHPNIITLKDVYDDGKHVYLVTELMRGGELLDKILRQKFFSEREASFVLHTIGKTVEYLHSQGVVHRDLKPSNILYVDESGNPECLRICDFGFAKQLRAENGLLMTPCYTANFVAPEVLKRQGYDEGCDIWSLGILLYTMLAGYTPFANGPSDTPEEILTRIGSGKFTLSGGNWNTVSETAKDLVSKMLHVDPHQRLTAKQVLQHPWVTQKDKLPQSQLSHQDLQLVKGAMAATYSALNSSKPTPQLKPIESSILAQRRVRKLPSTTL
measured.quantity: kinase still bound, per cent of control (%)
One number for each entry, in %.

Worked examples follow.
C=CC(=O)Nc1cc(NC(=O)c2ccc(C)c(NC(=O)c3ccno3)c2)cc(C(F)(F)F)c1    99
CCC(=O)N1CCN(c2ccc(-n3c(=O)ccc4cnc5ccc(-c6cnc7ccccc7c6)cc5c43)cc2C(F)(F)F)CC1    68
CN(C)C/C=C/C(=O)Nc1cccc(Nc2ncc3c(n2)N(C)c2ccccc2C(=O)N3C)c1    67
O=C1Nc2ccc(I)cc2/C1=C/c1cc(Br)c(O)c(Br)c1    42
Cc1ccc(NC(=O)c2cccc(C(C)(C)C#N)c2)cc1Nc1ccc2ncn(C)c(=O)c2c1    85

Could you tell me kinase still bound, per cent of control for each of these molecules? They are listed below.
1. Cc1ccc2nc(NCCN)c3ncc(C)n3c2c1
2. O=C(NOC[C@H](O)CO)c1ccc(F)c(F)c1Nc1ccc(I)cc1F
3. C=CC(=O)Nc1cccc(Nc2nc(N[C@H]3CC[C@H](N(C)C)CC3)nc3c2ncn3C(C)C)c1
4. CCCS(=O)(=O)Nc1ccc(F)c(C(=O)c2c[nH]c3ncc(-c4ccc(Cl)cc4)cc23)c1F
5. COc1cc(N2CCN(C)CC2)ccc1Nc1nc(N)c(C(=O)c2c(Cl)cccc2Cl)s1
6. COc1cc(C(=O)NC2CCN(C)CC2)ccc1Nc1ncc2c(n1)N(C1CCCC1)C(C)CC(=O)N2C (centres undefined)
7. C[C@@H](Oc1cc(-n2cnc3ccc(CN4CCN(C)CC4)cc32)sc1C(N)=O)c1ccccc1C(F)(F)F

[79, 100, 9.4, 57, 100, 100, 29]

Could you tell me kinase still bound, per cent of control for each of these molecules? They are listed below.
1. Nc1ccc(-c2ccc3ncc4ccc(=O)n(-c5cccc(C(F)(F)F)c5)c4c3c2)cn1
2. CCOc1cc2ncc(C#N)c(Nc3ccc(OCc4ccccn4)c(Cl)c3)c2cc1NC(=O)/C=C/CN(C)C
3. C=CC(=O)Nc1cccc(Oc2nc(Nc3ccc(N4CCN(C)CC4)cc3OC)ncc2Cl)c1
4. Cn1c(=O)n(-c2ccc(C(C)(C)C#N)cc2)c2c3cc(-c4cnc5ccccc5c4)ccc3ncc21
5. COc1cc(C(=O)NC2CCN(C)CC2)ccc1Nc1ncc2c(n1)N(C1CCCC1)CCC(=O)N2C(C)C
6. Cc1ccc(C(=O)Nc2cccc(C(F)(F)F)c2)cc1Nc1cncc(C(N)=O)c1
7. CC[C@@H]1C(=O)N(C)c2cnc(Nc3ccc(C(=O)NC4CCN(C)CC4)cc3OC)nc2N1C1CCCC1
8. OCCCNc1cc(-c2ccnc(Nc3cccc(Cl)c3)n2)ccn1

1: 100; 2: 57; 3: 12; 4: 100; 5: 100; 6: 100; 7: 100; 8: 100

Could you tell me kinase still bound, per cent of control for each of these molecules? They are listed below.
1. CCN1CCN(Cc2ccc(Nc3ncc4c(n3)N(C)c3ccccc3C(=O)N4C)cc2C(F)(F)F)CC1
2. N#Cc1c(NC(=O)c2cccc3ccccc23)sc2c1CCCC2
3. Cc1cc([C@@H](C)Nc2ccccc2C(=O)O)c2nc(N3CCOCC3)cc(=O)n2c1
4. O=C(NC1CC1)c1cccc(-c2ccc3c(NC(=O)C4CC4)n[nH]c3c2)c1

100
100
73
81
